System: Plasmodium berghei
Experiment summary: Luciferase/luciferin-expressing antifolate-resistant parasites were used to infect a culture of HepG2 cells that were pre-incubated with compounds. Infected hepatocytes emit light due to the luciferase reaction. Assay results are presented as the percent inhibition of light emission compared to control. […]
Assay type: functional
Conditions used: sporozoite, PBLUC_HILL_SLOPE 14.2, PBLUC_R_SQUARED 0.506, read-out: LUCIFERASE INFECTION ASSAY - IC50
Readout kind: IC50 (µM)
Give bare numbers, in µM.

Q: I have this compound here, Cc1ccccc1-c1cnc2cnc(-c3ccc(CNc4ccccc4)cc3)cn12 , and I need its recorded IC50.
A: 8.05

----------
Tested on: Plasmodium berghei
Experiment summary: Luciferase/luciferin-expressing antifolate-resistant parasites were used to infect a culture of HepG2 cells that were pre-incubated with compounds. Infected hepatocytes emit light due to the luciferase reaction. Assay results are presented as the percent inhibition of light emission compared to control. […]
Format: functional
Conditions used: sporozoite, read-out: LUCIFERASE INFECTION ASSAY - IC90
Readout kind: IC90 (µM)
One number for each entry, in µM.

{"Molecule": "CC(Oc1ccc(C(=O)NCc2ccnc(N(C)C)c2)cn1)c1ccccc1 (stereo not given)", "System under test": "Plasmodium berghei", "IC90 [µM]": 6.11}

Consider the additional molecule presented here.
Q: I have this molecule here, Cc1ccc(C2=NNC(=Nc3cccc(S(=O)(=O)N(C)C)c3)SC2)cc1 , and I need its recorded IC90.
A: 4.33

----------
Tested on: Plasmodium berghei
Experiment summary: Luciferase/luciferin-expressing antifolate-resistant parasites were used to infect a culture of HepG2 cells that were pre-incubated with compounds. Infected hepatocytes emit light due to the luciferase reaction. Assay results are presented as the percent inhibition of light emission compared to control. […]
Assay type: functional
Conditions used: sporozoite, HEPG2TOX_HILL_SLOPE 1.47, HEPG2TOX_R_SQUARED 0.952, PBLUC_HILL_SLOPE 19.2, PBLUC_R_SQUARED 0.401, read-out: LUCIFERASE INFECTION ASSAY - IC50
Readout kind: IC50 (µM)
Numbers only, in µM.

Q: I have this compound here, CC(C)NC(=O)c1c(NC(=O)c2cccc(C#N)c2)nc2ccccn12 , and I need its recorded IC50.
A: 6.85

----------
System: Plasmodium berghei
Experiment summary: Luciferase/luciferin-expressing antifolate-resistant parasites were used to infect a culture of HepG2 cells that were pre-incubated with compounds. Infected hepatocytes emit light due to the luciferase reaction. Assay results are presented as the percent inhibition of light emission compared to control. […]
Type: functional
Conditions used: sporozoite, FFLUC_HILL_SLOPE 5.95, FFLUC_R_SQUARED 0.0707, PBLUC_HILL_SLOPE 4.71, PBLUC_R_SQUARED 0.0859, read-out: LUCIFERASE INFECTION ASSAY - IC50
Readout kind: pIC50
Give bare numbers, as −log10 of the molar value.

Q: Give the reported pIC50 for COC(=O)c1ccccc1SCC(C)=O (system: Plasmodium berghei).
A: 4.85

----------
Tested on: Plasmodium berghei
Experiment summary: Luciferase/luciferin-expressing antifolate-resistant parasites were used to infect a culture of HepG2 cells that were pre-incubated with compounds. Infected hepatocytes emit light due to the luciferase reaction. Assay results are presented as the percent inhibition of light emission compared to control. […]
Format: functional
Conditions used: sporozoite, FFLUC_HILL_SLOPE 0.896, FFLUC_R_SQUARED 0.182, read-out: LUCIFERASE INFECTION ASSAY - IC50
Readout kind: IC50

Q: I have this compound here, COc1ccc2c(c1)C(=O)C(=O)N2Cc1ccccc1Cl , and I need its recorded IC50.
A: > 10.9 µM

----------
Test system: Plasmodium berghei
Experiment summary: Luciferase/luciferin-expressing antifolate-resistant parasites were used to infect a culture of HepG2 cells that were pre-incubated with compounds. Infected hepatocytes emit light due to the luciferase reaction. Assay results are presented as the percent inhibition of light emission compared to control. […]
Format: functional
Conditions used: sporozoite, HEPG2TOX_HILL_SLOPE 6.27, HEPG2TOX_R_SQUARED 0.869, read-out: LUCIFERASE INFECTION ASSAY - IC50
pIC50: −log10 of the molar value.
Readout kind: pIC50

Q: I have this molecule here, COc1ccccc1N(CC(=O)NCC12CC3CC(CC(C3)C1)C2)S(=O)(=O)c1ccccc1 , and I need its recorded pIC50.
A: < 5.00

----------
System: Plasmodium berghei
Experiment summary: Luciferase/luciferin-expressing antifolate-resistant parasites were used to infect a culture of HepG2 cells that were pre-incubated with compounds. Infected hepatocytes emit light due to the luciferase reaction. Assay results are presented as the percent inhibition of light emission compared to control. […]
Type: functional
Conditions used: sporozoite, HEPG2TOX_HILL_SLOPE 5.11, HEPG2TOX_R_SQUARED 0.645, PBLUC_HILL_SLOPE 3.24, PBLUC_R_SQUARED 0.155, read-out: LUCIFERASE INFECTION ASSAY - IC50
Readout kind: IC50 (µM)
Answers are plain numbers, in µM.

Q: Give the reported IC50 for CCOC(=O)c1sc(N(NC(=O)c2ccccc2Cl)C(=O)c2ccccc2Cl)c2c1CC(C)(C)CC2=O (system: Plasmodium berghei).
A: 3.1

----------
Answer each item with its documented IC90.
Test system: Plasmodium berghei
Experiment summary: Luciferase/luciferin-expressing antifolate-resistant parasites were used to infect a culture of HepG2 cells that were pre-incubated with compounds. Infected hepatocytes emit light due to the luciferase reaction. Assay results are presented as the percent inhibition of light emission compared to control. […]
Type: functional
Conditions used: sporozoite, read-out: LUCIFERASE INFECTION ASSAY - IC90

Check out these entries, answers already filled in.
{"Molecule": "COc1ccc(CC(=O)N2CCC3(CC2)OCc2ccccc2O3)cc1", "System under test": "Plasmodium berghei", "IC90": "> 9.34 µM"}
{"Molecule": "Nn1c(SC2CCCCC2=O)nnc1C1CCCCC1 (stereo unspecified)", "System under test": "Plasmodium berghei", "IC90": "> 10 µM"}
{"Molecule": "CNC(=O)c1ccc(C)c(C)c1", "System under test": "Plasmodium berghei", "IC90": "> 10 µM"}
{"Molecule": "Clc1cccc(-c2ccnc3n[nH]c(-c4cccnc4)c23)c1", "System under test": "Plasmodium berghei", "IC90": "4.14 µM"}
{"Molecule": "N#CC(C#N)=NNc1ccc(-n2ccc(C(F)(F)F)n2)cc1", "System under test": "Plasmodium berghei", "IC90": "> 10.8 µM"}
{"Molecule": "CCC(C)c1ccc(-c2cc(C(=O)OCC(=O)c3c(N)n(C)c(=O)n(C)c3=O)c3ccccc3n2)cc1 (stereo unspecified)", "System under test": "Plasmodium berghei", "IC90": "> 10 µM"}
{"Molecule": "Cc1cc(C)n(-c2ccc(NC(=O)C3(c4ccccc4)CC3)cn2)n1", "System under test": "Plasmodium berghei", "IC90": "0.834 µM"}
{"Molecule": "Cc1ccc(CSCCNC(=O)c2ccc3c[nH]nc3c2)cc1", "System under test": "Plasmodium berghei", "IC90": "> 10 µM"}
{"Molecule": "CCS(=O)(=O)c1ncc(Cl)c(C(=O)Nc2cc(Cl)cc(Cl)c2)n1", "System under test": "Plasmodium berghei", "IC90": "3.19 µM"}
{"Molecule": "C/C(=N\\Nc1c(Cl)cc(Cl)cc1Cl)c1ccc(N2CCOCC2)cc1", "System under test": "Plasmodium berghei", "IC90": "> 10 µM"}

Consider the additional molecule presented here.
Q: I have this molecule here, CCOc1ccc(S(=O)(=O)/N=C2\C=C3N(CCO)CCOC3(O)c3ccccc32)cc1 (stereo unspecified) , and I need its recorded IC90.
A: > 10 µM

----------
System: Plasmodium berghei
Experiment summary: Luciferase/luciferin-expressing antifolate-resistant parasites were used to infect a culture of HepG2 cells that were pre-incubated with compounds. Infected hepatocytes emit light due to the luciferase reaction. Assay results are presented as the percent inhibition of light emission compared to control. […]
Assay type: functional
Conditions used: sporozoite, PBLUC_HILL_SLOPE 1.92, PBLUC_R_SQUARED 0.84, read-out: LUCIFERASE INFECTION ASSAY - IC50
Readout kind: IC50 (nM)
Give bare numbers, in nM.

Q: Give the reported IC50 for Cc1csc(CNc2nc(-c3cccnc3)nc3sc(C)c(C)c23)n1 (system: Plasmodium berghei).
A: 1790

----------
System: Plasmodium berghei
Experiment summary: Luciferase/luciferin-expressing antifolate-resistant parasites were used to infect a culture of HepG2 cells that were pre-incubated with compounds. Infected hepatocytes emit light due to the luciferase reaction. Assay results are presented as the percent inhibition of light emission compared to control. […]
Format: functional
Conditions used: sporozoite, HEPG2TOX_HILL_SLOPE 0.167, HEPG2TOX_R_SQUARED 0.0943, PBLUC_HILL_SLOPE 2.23, PBLUC_R_SQUARED 0.122, read-out: LUCIFERASE INFECTION ASSAY - IC50
Readout kind: IC50
Answer with the value and then the unit.

Q: Give the reported IC50 for CCOC(=O)c1c(NC(=O)C2Cc3ccccc3CN2S(=O)(=O)c2cccs2)sc2c1CCCC2 (stereo unspecified) (system: Plasmodium berghei).
A: 6.53 µM

Data credit: ChEMBL document CHEMBL4483862
